Biological target: ligand binding domain of the estrogen receptor alpha chain (ERαLBD) (Homo sapiens, UniProt P03372)
Sequence (P03372 311-547 limits assumed): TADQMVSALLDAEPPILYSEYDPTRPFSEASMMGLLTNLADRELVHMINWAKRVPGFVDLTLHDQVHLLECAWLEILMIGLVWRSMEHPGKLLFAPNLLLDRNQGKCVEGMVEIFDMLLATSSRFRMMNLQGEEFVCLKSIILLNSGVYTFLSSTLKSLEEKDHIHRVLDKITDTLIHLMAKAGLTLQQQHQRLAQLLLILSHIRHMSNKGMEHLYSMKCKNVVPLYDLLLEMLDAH
Assay: ER agonist cell assay (ERα), Huh-7 co-transfection, luciferase
Details: Huh-7 cells co-transfected with pG5luc and ERαLBD; overnight incubation; luciferase
Method: The compounds ability to mimic the effects of estrogen on the estrogen receptor were determined in a whole cell assay as described immediately below. Experimental Procedure for ER Agonist Cell Assay […] Cells transfected 24 hrs earlier were harvested, counted, and seeded in wells containing compound at a density of 1×10^4 cells/well. […] Plates were incubated at room temperature for 20 minutes and firefly luminescence was measured on a luminometer. […]
readout-type: EC50 (µM)

Look over these answered cases.
CC(C)CC(=O)OCC1(c2onc(-c3ccc(O)cc3)c2-c2ccccc2)CC1: 0.0057
Oc1ccc(-c2noc(C3(CN4CCOCC4)CC3)c2-c2ccccc2)cc1: 0.0269
C[C@@H](O)C1(c2onc(-c3ccc(O)cc3)c2-c2ccccc2)CC1: 0.0331
Oc1ccc(-c2noc(C3(COCC(F)(F)F)CC3)c2-c2ccccc2)cc1: 0.171
CCCC(=O)OCC1(c2onc(-c3ccc(O)cc3)c2-c2ccccc2)CC1: 0.137
CCOc1ccc(-c2nnc(C3(c4onc(-c5ccc(O)cc5)c4-c4ccccc4)CC3)o2)cc1: 0.469

(A) CC(=O)SCC1(c2onc(-c3ccc(O)cc3)c2-c2ccccc2)CC1
(B) O=C(OCc1ccccc1)C1(c2onc(-c3ccc(O)cc3)c2-c2ccccc2)CC1
Which is greater in EC50, the first item A or the second item B ? Answer by stating the label of the chosen item. A
(A: 0.202 µM, B: 0.0572 µM)

---

Molecular target: ligand binding domain of the estrogen receptor alpha chain (ERαLBD) (Homo sapiens, UniProt P03372)
Experiment: ER agonist cell assay (ERα), Huh-7 co-transfection, luciferase
Conditions: Huh-7 cells co-transfected with pG5luc and ERαLBD; overnight incubation; luciferase
Description: The compounds ability to mimic the effects of estrogen on the estrogen receptor were determined in a whole cell assay as described immediately below. Experimental Procedure for ER Agonist Cell Assay […] Cells transfected 24 hrs earlier were harvested, counted, and seeded in wells containing compound at a density of 1×10^4 cells/well. […] Plates were incubated at room temperature for 20 minutes and firefly luminescence was measured on a luminometer. […]
pEC50: −log10 of the molar value.
readout-type: pEC50

COCC(=O)OCC1(c2onc(-c3ccc(O)cc3)c2-c2ccccc2)CC1 [Example 53]: 7.34
Oc1ccc(-c2nnc(C3(c4onc(-c5ccc(O)cc5)c4-c4ccccc4)CC3)o2)cc1 [Example 124]: 6.82
CC(=O)OCC1(c2onc(-c3ccc(O)cc3)c2-c2ccccc2)CC1 [Example 54]: 7.41
Cl.Oc1ccc(-c2noc(C3(CNc4ccc5c(c4)CCC5)CC3)c2-c2ccccc2)cc1 [Example 23, hydrochloride salt]: 6.25
CCOc1ccccc1OCC1(c2onc(-c3ccc(O)cc3)c2-c2ccccc2)CC1 [Example 4]: 6.85
CCOc1ncccc1OCC1(c2onc(-c3ccc(O)cc3)c2-c2ccccc2)CC1 [Example 6]: 6.63
COc1cccc(F)c1OCC1(c2onc(-c3ccc(O)cc3)c2-c2ccccc2)CC1 [Example 7]: 6.68
CCCOCC1(c2onc(-c3ccc(O)cc3)c2-c2ccccc2)CC1 [Example 9]: 6.75

(A) Oc1ccc(-c2noc(C3(C(O)(C4CC4)C4CC4)CC3)c2-c2ccccc2)cc1 [Example 99]
(B) CCC(=O)OCC1(c2onc(-c3ccc(O)cc3)c2-c2ccccc2)CC1 [Example 57]
Consider entries A and B . Which has the numerically lower pEC50? Answer = label. B
(B: 6.61, A: 7.42)
